Origin of the recorded values: ChEMBL document CHEMBL1201862

GI50 listing for selected compounds.
- Tested on: RXF 393
- protocol-description: NCI tumour cell line growth inhibition, 48 h
Activity calls are given as the source filed them. No stated cut-off is given here; in the data, active = GI50 up to about 1.1 µM and inactive = higher.

compound	GI50
Cc1cccc2cc3ccc4ccccc4c3cc12	75.2 µM (inactive)
COc1cccc(NC(=O)C(C)(C)C)c1SSc1c(NC(=O)C(C)(C)C)cccc1OC	20.3 µM (inactive)
COC(=O)CC(=O)NCC1=CCC(=O)CC1	> 100 µM (inactive)
Cc1cn(C2CC3C(COCN3O)O2)c(=O)[nH]c1=O (stereo not drawn)	> 100 µM (inactive)
O=C(/C=C/c1ccccc1)Oc1cccc(Br)c1	56.8 µM (inactive)
Cc1ccc(S(=O)(=O)N2CCCCN(S(=O)(=O)c3ccc(C)cc3)Cc3ccccc3OCCOCCOc3c4cccc3Cc3cccc5c3OCCOCCOc3ccccc3CN(S(=O)(=O)c3ccc(C)cc3)CCCN(S(=O)(=O)c3ccc(C)cc3)Cc3ccccc3OCCOCCOc3c(cccc3C4)Cc3cccc(c3OCCOCCOc3ccccc3C2)C5)cc1	> 100 µM (inactive)
CCOC(=O)C(NC(=O)NC(C(=O)OCC)C(=O)OCC)C(=O)OCC	> 100 µM (inactive)
O=C(NC1=C(Cl)C(=O)c2ccccc2C1=O)C(=O)C(C(=O)c1ccc2ccccc2c1)C1OC(=O)c2ccccc21 (stereo not drawn)	4.49 µM (inactive)
CCNC1=C(NC(=O)c2ccc(F)cc2)C(=O)c2ccccc2C1=O	29.4 µM (inactive)
CC1C(c2ccccc2O)c2cc3c(cc2OC1N1CCCC1)OCO3 (stereo not drawn)	13.7 µM (inactive)

*Q* What GI50 value was documented for this compound, COc1c(O)ccc(C2=Cc3ccc(O)cc3OC2)c1OC ?
*A* 18.7 µM (inactive)

*Q* Endpoint output: GI50 of COc1cccc(N2C(=O)C3c4[nH]c5ccc(C)cc5c4C4CCC(C(C)(C)C)CC4C3C2=O)c1 (stereo not drawn) . Value?
*A* 3.8 µM (inactive)

*Q* For CCOc1ccc(/N=N/c2c(-c3ccccc3)nn(C(=O)CC(=O)Nc3cccc(C)c3)c2-c2ccccc2)cc1 , what is its reported GI50?
*A* 57.9 µM (inactive)
